Where do these numbers come from? They come from patent USRE47302E1.

measurementProtocol: Solubility pH 7
testConditions: pH 7, aqueous buffer
Classify as follows. Reported solubility greater than or equal to 2000 µg/mL: true (1). Reported solubility below: false (0).

smilesStructure: COc1ccc(C[C@H](NC(=O)[C@H](C)NC(=O)CN2CCOCC2)C(=O)N[C@@H](C[C@H]2[C@@H]3CCC[C@@H]32)C(=O)[C@@]2(C)CO2)cc1
group: true (1)
//
smilesStructure: COc1ccc(C[C@H](NC(=O)[C@@H](C)NC(=O)[C@H]2CC[C@](C)(O)CC2)C(=O)N[C@@H](CC2=CCCC2)C(=O)[C@@]2(C)CO2)cc1
group: false (0)
//
smilesStructure: C[C@H](NC(=O)CN1CCOCC1)C(=O)N[C@@H](Cc1cccc(S(C)(=O)=O)c1)C(=O)N[C@@H](CC1CCCC1)C(=O)[C@@]1(C)CO1
group: true (1)
//
smilesStructure: COc1ccc([C@@H](O)[C@H](NC(=O)[C@H](CO)NC(=O)CN2CCOCC2)C(=O)N[C@@H](CC2=CCCC2)C(=O)[C@@]2(C)CO2)cc1
group: true (1)
//
smilesStructure: C[C@H](NC(=O)CN1CCOCC1)C(=O)N[C@@H](Cc1ccc(O)c(O)c1)C(=O)N[C@@H](CC1CCCC1)C(=O)[C@@]1(C)CO1
group: true (1)
//
smilesStructure: C[C@H](NC(=O)CN1CCOCC1)C(=O)N[C@@H](Cc1coc2ccccc12)C(=O)N[C@@H](CC1CCCC1)C(=O)[C@@]1(C)CO1
group: false (0)
//
smilesStructure: COc1ccc(C[C@H](NC(=O)[C@@H](C)NC(=O)[C@H]2CC[C@H](O)CC2)C(=O)N[C@@H](CC2=CCCC2)C(=O)[C@@]2(C)CO2)cc1O
group: true (1)
//
smilesStructure: COc1ccc(C[C@H](NC(=O)[C@@H](C)NC(=O)[C@]2(C)CC[C@@H](O)CC2)C(=O)N[C@@H](CC2=CCCC2)C(=O)[C@@]2(C)CO2)cc1
group: false (0)
//
smilesStructure: COc1ccc(C[C@H](NC(=O)[C@H](C)NC(=O)CN2CCOCC2)C(=O)N[C@@H](C[C@@H]2CCCO2)C(=O)[C@@]2(C)CO2)cc1
group: true (1)
//
smilesStructure: COc1ccc(C[C@H](NC(=O)[C@@H](NC(=O)CN2CCOCC2)C2COC2)C(=O)N[C@@H](Cc2ccccc2)C(=O)[C@@]2(C)CO2)cc1
group: true (1)

====

measurementProtocol: Solubility pH 7
testConditions: pH 7, aqueous buffer
// map solubility onto a label; ranges lower band (below 700 µg/mL), central band (700 µg/mL to below 2000 µg/mL), upper band (2000 µg/mL or more)

smilesStructure: COc1ccc(C[C@H](NC(=O)[C@@H](C)NC(=O)CC2CCOCC2)C(=O)N[C@@H](CC2CCCC2)C(=O)[C@@]2(C)CO2)cc1
group: central band
//
smilesStructure: COc1ccc(C[C@H](NC(=O)[C@H](C)NC(=O)CN2CCOCC2)C(=O)N[C@@H](C[C@H]2CC[C@H](O)CC2)C(=O)[C@@]2(C)CO2)cc1
group: upper band
//
smilesStructure: COc1ccc(C[C@H](NC(=O)[C@H](C)NC(=O)CN2CCCC(F)(F)C2)C(=O)N[C@@H](CC2CCCC2)C(=O)[C@@]2(C)CO2)cc1
group: lower band
//
smilesStructure: C[C@H](NC(=O)CN1CCOCC1)C(=O)N[C@@H](Cc1ccc2c(c1)CCS(=O)(=O)N2)C(=O)N[C@@H](CC1CCCC1)C(=O)[C@@]1(C)CO1
group: upper band
//
smilesStructure: COc1ccc(C[C@H](NC(=O)[C@H](C)NC(=O)CC2COC2)C(=O)N[C@@H](Cc2ccccc2)C(=O)[C@@]2(C)CO2)cc1
group: central band
//
smilesStructure: COc1ccc(C[C@H](NC(=O)[C@H](C)NC(=O)[C@H]2CCCN2C)C(=O)N[C@@H](Cc2ccccc2)C(=O)[C@@]2(C)CO2)cc1
group: upper band
//
smilesStructure: COc1ccc(C[C@H](NC(=O)[C@@H](C)NC(=O)[C@H]2CCCO2)C(=O)N[C@@H](CC2CCCC2)C(=O)[C@@]2(C)CO2)cc1
group: lower band
//
smilesStructure: COc1ccc(C[C@H](NC(=O)[C@H](C)NC(=O)[C@H]2CCCO2)C(=O)N[C@@H](Cc2ccccc2)C(=O)[C@@]2(C)CO2)cc1
group: lower band
//
smilesStructure: COc1ccc(C[C@H](NC(=O)[C@H](C)NC(=O)CN2CCC(F)(F)CC2)C(=O)N[C@@H](CC2CCCC2)C(=O)[C@@]2(C)CO2)cc1
group: lower band
//
smilesStructure: C[C@@H](NC(=O)[C@H]1CC[C@H](O)CC1)C(=O)N[C@@H](Cc1ccc(C#N)cc1)C(=O)N[C@@H](CC1CCCC1)C(=O)[C@@]1(C)CO1
group: upper band
//
smilesStructure: COc1ccc(C[C@H](NC(=O)[C@@H](NC(=O)CN2CCOCC2)[C@H](C)O)C(=O)N[C@@H](Cc2ccccc2)C(=O)[C@@]2(C)CO2)cc1
group: central band
//
smilesStructure: COc1ccc(C[C@H](NC(=O)[C@@H](C)NC(=O)[C@H]2CC[C@H](O)CC2)C(=O)N[C@@H](CC2CCC2)C(=O)[C@@]2(C)CO2)cc1
group: central band
//
smilesStructure: COc1ccc(C[C@H](NC(=O)[C@@H](C)NC(=O)[C@H]2CC[C@H](O)CC2)C(=O)N[C@@H](CC2=CCCCC2)C(=O)[C@@]2(C)CO2)cc1
group: central band
//
smilesStructure: COc1ccc(C[C@H](NC(=O)[C@@H](C)NC(=O)C2CCOCC2)C(=O)N[C@@H](CC2=CCCC2)C(=O)[C@@]2(C)CO2)cc1O
group: lower band
//
smilesStructure: C[C@H](NC(=O)CN1CCOCC1)C(=O)N[C@@H](Cc1ccc(F)cn1)C(=O)N[C@@H](Cc1ccccc1)C(=O)[C@@]1(C)CO1
group: central band
//
smilesStructure: COc1ccc(C[C@H](NC(=O)[C@H](C)NC(=O)CN2CCOCC2)C(=O)N[C@@H](CC(F)(F)F)C(=O)[C@@]2(C)CO2)cc1
group: upper band
//
smilesStructure: C[C@H](NC(=O)CN1CCOCC1)C(=O)N[C@@H](Cc1ccco1)C(=O)N[C@@H](CC1CCCC1)C(=O)[C@@]1(C)CO1
group: central band
//
smilesStructure: COc1ccc(C[C@H](NC(=O)[C@H](C)NC(=O)CN2CCC(Cl)CC2)C(=O)N[C@@H](CC2CCCC2)C(=O)[C@@]2(C)CO2)cc1
group: lower band
//
smilesStructure: C#CC[C@H](NC(=O)CN1CCOCC1)C(=O)N[C@@H](Cc1ccc(OC)cc1)C(=O)N[C@@H](CC1=CCCC1)C(=O)[C@@]1(C)CO1
group: lower band
//
smilesStructure: COc1ccc(C[C@H](NC(=O)[C@@H](CO)NC(=O)[C@H]2CC[C@H](O)CC2)C(=O)N[C@@H](CC2=CCCC2)C(=O)[C@@]2(C)CO2)cc1
group: upper band
